Recorded values, source PubChem BioAssay.

# experimental_details: reduced mouse 2C T cell binding to pMHC/ICAM-1 vesicles – MLPCN validation set, flow cytometry, LFA-1/ICAM-1 modulator project, pilot screen (AID 2523);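 also: mean PE anti-B7-1 fluorescence of CD8+ cells relative to row control; 100% = QL9-loaded vesicles with DMSO vehicle in the same plate row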
# run_conditions: 2C mouse CD8+ T cells, at 7 µM, active compounds read low
assay_endpoint: vesicle binding response (%)

molecule=Nc1ccc(S(=O)(=O)NC(=O)c2ccccc2)cc1 assay_endpoint="vesicle binding response" test_value=30.6
molecule=CCCCC[C@H](O)/C=C/C1=C(CCCCCCC(=O)O)C(=O)CC1 assay_endpoint="vesicle binding response" test_value=98.4
molecule=Cc1cc(NS(=O)(=O)c2ccc(N)cc2)no1 assay_endpoint="vesicle binding response" test_value=121
molecule="CC(NC(=O)c1ccc(N2CCNCC2)c([N+](=O)[O-])c1)C12CC3CC(CC(C3)C1)C2 (stereo not given)" assay_endpoint="vesicle binding response" test_value=87.2
molecule=COc1cc2[nH]c3c(=O)n(CCN4CCOCC4)cnc3c2cc1OC assay_endpoint="vesicle binding response" test_value=172
molecule=Cc1cnc(NC(=O)C2=C(O)c3ccccc3S(=O)(=O)N2C)s1 assay_endpoint="vesicle binding response" test_value=958
molecule="Cc1ccc2nc(NC3=NC(CC(=O)O)C(=O)N3)nc(C)c2c1 (stereo not given)" assay_endpoint="vesicle binding response" test_value=214
molecule=NC(N)=NC(N)=Nc1ccc2ccccc2c1 assay_endpoint="vesicle binding response" test_value=183
molecule=COc1ccc(S(=O)(=O)NCc2ccco2)c2ccccc12 assay_endpoint="vesicle binding response" test_value=175
molecule=O=C(O)[C@H](Cc1ccccc1)NC(=O)N1CCC(Cc2ccccc2)CC1 assay_endpoint="vesicle binding response" test_value=122
molecule=CC(=O)c1c(C)c(C)c2n1CCn1c(C)ccc1-2 assay_endpoint="vesicle binding response" test_value=141
molecule=COc1ccc(N2CCN(C(=S)NCc3ccccc3)CC2)cc1 assay_endpoint="vesicle binding response" test_value=171
molecule=C#C[C@]1(O)CC[C@H]2[C@@H]3CCc4cc(O)ccc4[C@H]3CC[C@@]21C assay_endpoint="vesicle binding response" test_value=88.7
molecule="CCOC(=O)C1C2C=CC3(CN(c4ccc(Cl)c(F)c4)C(=O)C13)O2 (stereo not given)" assay_endpoint="vesicle binding response" test_value=171
molecule=O=c1nc2sc3ccccc3n2c(=O)n1-c1ccc(Cl)cc1 assay_endpoint="vesicle binding response" test_value=232
molecule=COc1ccc(NS(=O)(=O)c2ccc(N)cc2)nn1 assay_endpoint="vesicle binding response" test_value=162
molecule=COc1cc(/C=C/C(=O)O)cc(S(=O)(=O)NCCCO)c1OC assay_endpoint="vesicle binding response" test_value=157
molecule=O=C(OCCN1CCOCC1)c1cccs1 assay_endpoint="vesicle binding response" test_value=260
molecule=NS(=O)(=O)c1cc2c(cc1Cl)NCNS2(=O)=O assay_endpoint="vesicle binding response" test_value=245
molecule="O=C(NCCC(c1ccccc1)c1ccco1)c1cccs1 (stereo not given)" assay_endpoint="vesicle binding response" test_value=230
molecule=CC(C)Oc1ccc2c(=O)c(-c3ccccc3)coc2c1 assay_endpoint="vesicle binding response" test_value=209
molecule=Cc1cc(/C=N/O)c(C)n1-c1ccc(Br)cc1 assay_endpoint="vesicle binding response" test_value=263
molecule=Nc1cc(-c2ccncc2)c[nH]c1=O assay_endpoint="vesicle binding response" test_value=184
molecule="CN(C)[C@@H]1C(=O)C(C(=O)NCN2CCCC2)=C(O)[C@@]2(O)C(=O)C3=C(O)c4c(O)cccc4[C@@](C)(O)C3CC12 (stereo not given in full)" assay_endpoint="vesicle binding response" test_value=145
molecule="Cc1ccc(C2CC(c3cccs3)=NN2C(=O)c2ccco2)o1 (stereo not given)" assay_endpoint="vesicle binding response" test_value=135
molecule=COc1ccc(O)c(C(=O)/C=C/c2cc3ccccc3o2)c1 assay_endpoint="vesicle binding response" test_value=117
molecule="COc1ccc(CN2CCCCC2C(=O)Nc2ccc(OC)c(OCC(C)C)c2)cc1OC (stereo not given)" assay_endpoint="vesicle binding response" test_value=29
molecule=C[C@@H]1C[C@H]2[C@@H]3C[C@H](F)C4=CC(=O)C=C[C@]4(C)[C@@]3(F)[C@@H](O)C[C@]2(C)[C@@]1(O)C(=O)COC(=O)C(C)(C)C assay_endpoint="vesicle binding response" test_value=142
molecule="O=C(O)C1Cc2ccccc2CN1S(=O)(=O)c1ccccc1 (stereo not given)" assay_endpoint="vesicle binding response" test_value=186
molecule=S=C(NCCOCCOCCNC(=S)Nc1ccccc1)Nc1ccccc1 assay_endpoint="vesicle binding response" test_value=250
molecule=O=C(O)/C=C/c1cccc(OCc2ccccc2)c1 assay_endpoint="vesicle binding response" test_value=131
molecule=O=C(O)c1ccc(C(=O)C(=O)c2ccccc2)cc1 assay_endpoint="vesicle binding response" test_value=304
molecule=CC(=O)OC[C@H]1O[C@@H](Sc2cccc3cccnc23)[C@H](OC(C)=O)[C@@H](OC(C)=O)[C@H]1OC(C)=O assay_endpoint="vesicle binding response" test_value=187
molecule=O=C(O)Cc1ccc(-c2ccccc2)cc1 assay_endpoint="vesicle binding response" test_value=5570
molecule=COC(=O)c1[nH]c2ccc(C)cc2c1NC(=O)CN1CCc2cc(OC)c(OC)cc2C1 assay_endpoint="vesicle binding response" test_value=296
molecule=CC[C@H]1CN2CCc3cc(OC)c(OC)cc3[C@@H]2C[C@@H]1C[C@H]1NCCc2cc(OC)c(OC)cc21 assay_endpoint="vesicle binding response" test_value=140
molecule=CCOC(=O)c1ncn2c1CN(C)C(=O)c1cc(F)ccc1-2 assay_endpoint="vesicle binding response" test_value=200
molecule=CN/C(=C/[N+](=O)[O-])NCCSCc1ccc(CN(C)C)o1 assay_endpoint="vesicle binding response" test_value=123
molecule=COc1ccc(Cc2noc(CN(C)CC3(N4CCOCC4)CCCCC3)n2)cc1OC assay_endpoint="vesicle binding response" test_value=80.5
molecule="COc1ccc2c(c1OC)C(=O)OC2C1c2c(cc3c(c2OC)OCO3)CCN1C (stereo not given)" assay_endpoint="vesicle binding response" test_value=230
molecule=COc1cc2c(cc1OC)C(c1ccccc1)=NCC2 assay_endpoint="vesicle binding response" test_value=202
molecule="Cc1ccc2c(c1C)NC(C(=O)O)C1CC=CC21 (stereo not given)" assay_endpoint="vesicle binding response" test_value=121
molecule=N=c1c[n+](N2CCOCC2)[n-]o1 assay_endpoint="vesicle binding response" test_value=236
molecule=O=C(Cc1c[nH]c2ccccc12)OCCOC(=O)Cc1c[nH]c2ccccc12 assay_endpoint="vesicle binding response" test_value=111
molecule=C=C(C)C(=O)Nc1ccc(NC(C)C)cc1 assay_endpoint="vesicle binding response" test_value=170

====

As shown below, each of these compounds has a reported GFP response, % of DMSO value.
# experimental_details: yeast AGP1-GFP level changes, GLN3 branch – cell-based, multiplex flow cytometry, S. cerevisiae, primary screen (AID 1887);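 also: AGP1-GFP fusion strain of S. cerevisiae within a five-strain barcoded multiplex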
# run_conditions: 3 h, at 10 µM, active compounds read high
Results filed as inconclusive are left out.
assay_endpoint: GFP response, % of DMSO (%)

compound="CN1C(=O)NC(c2ccc(O)cc2)C2=C1CN(c1cccc3ccccc13)C2=O (configuration not stated)" assay_endpoint="GFP response, % of DMSO" test_value=100
compound=CCN(CC)CCNC(=O)c1ccc(N)cc1 assay_endpoint="GFP response, % of DMSO" test_value=94.6
compound=CCCCC(=O)O[C@H]1CC[C@H]2[C@@H]3CCc4cc(O)ccc4[C@H]3CC[C@]12C assay_endpoint="GFP response, % of DMSO" test_value=116
compound=CC(=O)Nc1ccccc1O assay_endpoint="GFP response, % of DMSO" test_value=86.6
compound=COc1c2ccoc2nc2c(OC)cccc12 assay_endpoint="GFP response, % of DMSO" test_value=105
compound="CCCCCCCCNC(C)C(O)c1ccc(SC(C)C)cc1 (configuration not stated)" assay_endpoint="GFP response, % of DMSO" test_value=92.2
compound=CCCCNc1ccc(C(=O)OCCN(C)C)cc1 assay_endpoint="GFP response, % of DMSO" test_value=97.3
compound=O=C(O)c1cc2cc(Cl)cc(Cl)c2oc1=O assay_endpoint="GFP response, % of DMSO" test_value=93.1
compound=CC1CCN(C(=O)Oc2ccccc2)CC1 assay_endpoint="GFP response, % of DMSO" test_value=107
compound=Cc1ccccc1-c1nn(-c2ccc(F)cc2F)cc1CNCCN(C)C assay_endpoint="GFP response, % of DMSO" test_value=102
compound=COC(=O)[C@@H](N)CS assay_endpoint="GFP response, % of DMSO" test_value=103
compound=Cc1ccc(S(=O)(=O)NC(=O)Nc2cc(C)ccc2F)cc1 assay_endpoint="GFP response, % of DMSO" test_value=96.5
compound=C[C@]12CC[C@@H]3c4ccc(O)cc4CC[C@H]3[C@@H]1CC[C@@H]2O assay_endpoint="GFP response, % of DMSO" test_value=98.6
compound="CC(C)=CC/C=C1\\CCC(C(=O)O)C(C(=O)O)C1 (configuration not stated)" assay_endpoint="GFP response, % of DMSO" test_value=87.5
compound=CN1CCN(CC/C=C2/c3ccccc3Sc3ccc(S(=O)(=O)N(C)C)cc32)CC1 assay_endpoint="GFP response, % of DMSO" test_value=94.8
compound="Cc1ccc(S(=O)(=O)N2CCC(C(=O)N[C@@H](C)C(=O)NC3CCS(=O)(=O)C3)CC2)cc1 (some centres not stated)" assay_endpoint="GFP response, % of DMSO" test_value=96.3
compound=O=C(CCCn1c(=O)oc2ccccc21)N1CCN(c2ccc(F)cc2)CC1 assay_endpoint="GFP response, % of DMSO" test_value=91.4
compound="O=C(CCC1CCCN(C(=O)c2ccsc2)C1)NCc1ccc(F)c(F)c1 (configuration not stated)" assay_endpoint="GFP response, % of DMSO" test_value=98.9
compound=NCCc1ccc(O)c(O)c1 assay_endpoint="GFP response, % of DMSO" test_value=95.6
compound=COc1ccc(N2CCN(C(=S)NCc3ccccc3)CC2)cc1 assay_endpoint="GFP response, % of DMSO" test_value=88.2
compound=COc1c(C=O)c(CCN(C)C(=O)c2ccc(F)cc2)cc2c1OCO2 assay_endpoint="GFP response, % of DMSO" test_value=106
compound=CCOc1ccc2[nH]c3c(=O)n(CCc4ccc(OC)cc4)cnc3c2c1 assay_endpoint="GFP response, % of DMSO" test_value=101
compound="COc1ccc2nc(S(=O)Cc3ncc(C)c(OC)c3C)[nH]c2c1 (configuration not stated)" assay_endpoint="GFP response, % of DMSO" test_value=97.1
compound=c1coc(-c2nnc3n2C2(CCCC2)Cc2ccccc2-3)c1 assay_endpoint="GFP response, % of DMSO" test_value=91.5
compound=O=C(COc1cc(O)c2c(=O)c3ccccc3oc2c1)OCc1ccccc1 assay_endpoint="GFP response, % of DMSO" test_value=97.6
compound=COc1cc(/C=C/C(=O)O)cc(S(=O)(=O)NCCCO)c1OC assay_endpoint="GFP response, % of DMSO" test_value=105
compound="COc1ccc(C2NCCC3(O)CCCCC23)c(OC)c1OC (configuration not stated)" assay_endpoint="GFP response, % of DMSO" test_value=97.4
compound=CSCC[C@H](NC(=O)Nc1ccc(C)cc1C)C(=O)O assay_endpoint="GFP response, % of DMSO" test_value=96.5
compound=CCc1cc(=O)oc2cc3occ(-c4ccc(OC)c(F)c4)c3cc12 assay_endpoint="GFP response, % of DMSO" test_value=87.7
compound="CCOC(=O)c1ccc(N2C(=O)C(CC(=O)NC)N(CCc3ccc(OC)c(OC)c3)C2=S)cc1 (configuration not stated)" assay_endpoint="GFP response, % of DMSO" test_value=98.8
compound="COc1ccc(C(CC(=O)N2CCOCC2)C(C)C)cc1 (configuration not stated)" assay_endpoint="GFP response, % of DMSO" test_value=106
compound=Cn1c(=O)c2nc3ccccc3nc2n(C)c1=O assay_endpoint="GFP response, % of DMSO" test_value=94.3
compound=CCC(=O)c1ccc(OCc2ccc(C(=O)OC)cc2)cc1 assay_endpoint="GFP response, % of DMSO" test_value=98.6
compound="CC(NCCc1ccc(O)cc1)C(O)c1ccc(O)cc1 (configuration not stated)" assay_endpoint="GFP response, % of DMSO" test_value=93.1
compound=O=C(Cc1ccccc1)NNC(=O)Cc1ccccc1 assay_endpoint="GFP response, % of DMSO" test_value=98.9
compound=Cn1c(=O)c(C(=O)NCCO)c(O)c2ccccc21 assay_endpoint="GFP response, % of DMSO" test_value=113
compound=O=c1nc2n(c3c1oc1ccccc13)Cc1ccccc1-2 assay_endpoint="GFP response, % of DMSO" test_value=108
compound=CC1(C)CC(=O)C(C2=NC(C)(C)Cc3ccccc32)=C(O)C1 assay_endpoint="GFP response, % of DMSO" test_value=101
compound="CC(C)CC1c2[nH]c3ccccc3c2CCN1C(=O)CCC(=O)N(C)C (configuration not stated)" assay_endpoint="GFP response, % of DMSO" test_value=93.1
compound=C/C=C(/C(=C/C)c1ccc(O)cc1)c1ccc(O)cc1 assay_endpoint="GFP response, % of DMSO" test_value=87.7
compound=O=c1[nH]c(=O)n([C@H]2C[C@H](O)[C@@H](CO)O2)cc1C(F)(F)F assay_endpoint="GFP response, % of DMSO" test_value=94.8
compound=CC(=O)CCCCn1c(=O)c2c(ncn2C)n(C)c1=O assay_endpoint="GFP response, % of DMSO" test_value=97.5
compound="COc1ccc(CN2CCCC(C(=O)c3ccc(Cl)cc3)C2)cc1Cn1cccn1 (configuration not stated)" assay_endpoint="GFP response, % of DMSO" test_value=100
compound=COc1cc2c(cc1OC)CN(C(=O)c1ccc(S(=O)(=O)N(C)c3ccccc3)cc1)CC2 assay_endpoint="GFP response, % of DMSO" test_value=111
compound="CC12CN3CC(C)(CN(C1)C3c1ccc([N+](=O)[O-])o1)C2 (configuration not stated)" assay_endpoint="GFP response, % of DMSO" test_value=91.5
compound=COc1ccc(C2=CC(=O)C=CC2=O)cc1 assay_endpoint="GFP response, % of DMSO" test_value=91.9
compound="COc1ccccc1N=CC1=C(O)CC(c2ccccc2)CC1=O (configuration not stated)" assay_endpoint="GFP response, % of DMSO" test_value=88.9
